src = patent US20230115176A1

# Measured On: Human C5 (Homo sapiens, UniProt P01031)
# Construct: purchased Complement Technology
# Sequence (P01031 19-1676): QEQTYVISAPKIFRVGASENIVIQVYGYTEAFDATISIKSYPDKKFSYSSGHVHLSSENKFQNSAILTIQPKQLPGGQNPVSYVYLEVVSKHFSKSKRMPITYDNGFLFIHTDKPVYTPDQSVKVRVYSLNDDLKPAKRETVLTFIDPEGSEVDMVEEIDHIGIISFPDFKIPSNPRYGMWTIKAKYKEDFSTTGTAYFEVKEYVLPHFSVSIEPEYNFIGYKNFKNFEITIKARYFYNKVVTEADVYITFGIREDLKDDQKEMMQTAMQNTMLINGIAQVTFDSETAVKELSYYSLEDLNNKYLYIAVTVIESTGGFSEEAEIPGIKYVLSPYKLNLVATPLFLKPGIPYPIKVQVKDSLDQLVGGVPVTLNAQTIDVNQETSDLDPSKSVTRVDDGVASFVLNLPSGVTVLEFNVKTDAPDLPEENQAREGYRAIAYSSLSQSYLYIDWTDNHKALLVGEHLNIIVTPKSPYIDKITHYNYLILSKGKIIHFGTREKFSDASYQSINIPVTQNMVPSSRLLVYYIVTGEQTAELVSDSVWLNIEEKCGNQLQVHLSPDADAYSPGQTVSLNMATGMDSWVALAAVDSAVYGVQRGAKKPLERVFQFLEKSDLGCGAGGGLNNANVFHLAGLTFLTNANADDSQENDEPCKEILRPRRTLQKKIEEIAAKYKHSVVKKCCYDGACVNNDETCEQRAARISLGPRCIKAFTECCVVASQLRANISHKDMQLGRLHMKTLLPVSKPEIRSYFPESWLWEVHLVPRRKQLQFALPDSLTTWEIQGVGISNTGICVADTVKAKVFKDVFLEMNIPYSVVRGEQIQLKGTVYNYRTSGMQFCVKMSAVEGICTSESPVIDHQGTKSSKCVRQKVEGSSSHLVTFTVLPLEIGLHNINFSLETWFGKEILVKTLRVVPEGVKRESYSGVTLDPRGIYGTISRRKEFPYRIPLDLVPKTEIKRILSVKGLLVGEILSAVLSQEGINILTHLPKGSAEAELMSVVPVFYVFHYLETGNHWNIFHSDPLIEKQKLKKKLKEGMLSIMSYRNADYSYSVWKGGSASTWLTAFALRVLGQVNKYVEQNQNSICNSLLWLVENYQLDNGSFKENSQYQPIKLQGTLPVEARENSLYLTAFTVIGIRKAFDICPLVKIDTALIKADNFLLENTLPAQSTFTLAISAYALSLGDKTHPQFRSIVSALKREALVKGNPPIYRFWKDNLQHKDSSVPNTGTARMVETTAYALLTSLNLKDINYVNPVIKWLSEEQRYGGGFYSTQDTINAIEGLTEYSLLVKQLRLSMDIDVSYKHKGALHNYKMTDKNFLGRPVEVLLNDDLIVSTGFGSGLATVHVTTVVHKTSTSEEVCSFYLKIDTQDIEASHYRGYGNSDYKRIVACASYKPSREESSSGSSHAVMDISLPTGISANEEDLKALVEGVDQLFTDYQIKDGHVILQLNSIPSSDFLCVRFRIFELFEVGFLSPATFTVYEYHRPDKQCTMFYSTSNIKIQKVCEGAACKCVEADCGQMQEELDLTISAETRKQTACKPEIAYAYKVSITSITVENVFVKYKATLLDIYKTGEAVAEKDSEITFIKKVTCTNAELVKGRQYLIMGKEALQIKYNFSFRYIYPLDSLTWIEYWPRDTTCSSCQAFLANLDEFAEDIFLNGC
# Measurement Notes: Surface plasmon resonance (SPR), immobilized human C5 (Example 9, Table 18)
# Assay type: binding
# Test Conditions: immobilized human C5, equilibrium dissociation constant; read-out: SPR C5 EQ KD
Property: Kd (µM)

COc1ccc(NC(=O)NC(CO)c2cccc3c2ccn3C)cc1OCCCC(C)C (stereo not shown) [Compound C5INH-0463]    0.28
COc1ccc(NC(=O)NCc2ccc(N3CCN(C)CC3)cc2)cc1OCCCC(C)C [Compound C5INH-0420]    0.8
COc1ccc(NC(=O)NCc2cccc(C(=N)N)c2)cc1OCCCC(C)C [Compound C5INH-0303]    0.71
COc1ccc(NC(=O)N(CCN2CCOCC2)Cc2cccc3c2ccn3CCN2CCOCC2)cc1OCCCC(C)C [Compound C5INH-0438]    2.78
COc1ccc(NC(=O)NCc2ccnc3c2ccn3C(C)=O)cc1OCCCC(C)C [Compound C5INH-0436]    0.51

[1] COc1ccc(NC(=O)NCc2cccnc2OC)cc1OCCCC(C)C [Compound C5INH-0310]
[2] CNc1ccc(CNC(=O)Nc2ccc(OC)c(OCCCC(C)C)c2)cc1 [Compound C5INH-0443]
Lookup: So which one has the bigger Kd here, 1 or 2 ? Lab note: record the label of whichever item you select.
Found: 2
(2: 0.3 µM, 1: 0.04 µM)

###

# Measurement Notes: Permeability assay, unidirectional transport, Papp (Example 30, Table 34)
# Format: in vitro ADME, canine
# Test Conditions: dog, pH 7.4; MDCK-WT cell monolayers, A-to-B, 3 μM test compound, 37° C., duplicate determinations
Property: Papp A→B at 3 μM (×10⁻⁶ cm/s)

In the examples that follow, each entry is paired with its recorded Papp A→B at 3 μM.
CCCCCOc1cc(N2CC[C@H](C)N(Cc3ccnc4c3c(Cl)cn4CC(=O)N3CC[C@H](N4CCOCC4)C3)C2=O)ccc1OC [SC0100]    14.3
CCCCCOc1cc(N2CCCN(Cc3ccnc4c3c(Cl)cn4CC(=O)N3CC4CC(C3)O4)C2=O)ccc1OC [CU0506]    21.1

[A] CCCCCOc1cc(N2CCCN(Cc3ccc(CNC(C)=O)cc3OC)C2=O)ccc1OC [CU0160]
[B] CCCCCOc1cc(N2CC[C@H](C)N(Cc3ccnc4c3c(Cl)cn4CC(=O)N3CC(N(C)C)C3)C2=O)ccc1OC [SC0155]
Lookup: So which one has the bigger Papp A→B at 3 μM here, A or B ? Lab note: record the label of whichever item you select.
Found: A
(A: 21.6 ×10⁻⁶ cm/s, B: 9.9 ×10⁻⁶ cm/s)

###

# Measured On: Human C5 (Homo sapiens, UniProt P01031)
# Construct: purchased Complement Technology
# Measurement Notes: Surface plasmon resonance (SPR), immobilized human C5 (Example 9, Table 18)
# Type: binding
# Test Conditions: SPR, human C5 immobilized; read-out: equilibrium dissociation constant for interaction with C5
Here, each record is paired with measured Kd data.

In the examples that follow, each entry is paired with its recorded Kd.
COc1ccc(CNC(=O)Nc2ccc(OC)c(OCCCC(C)C)c2)c(OC)c1 [Compound C5INH-0348]    < 20 nM
COc1ccc(NC(=O)NCc2cc(F)cc3[nH]ccc23)cc1OCCCC(C)C [Compound C5INH-0517]    < 20 nM
COc1ccc(NC(=O)NCc2cccc3c2ccn3CC(=O)N(C)C)cc1OCCCC(C)C [Compound C5INH-0516]    < 20 nM
COc1ccc(NC(=O)NCc2cccc3c2ccn3CC2CCCN2C)cc1OCCCC(C)C (stereo not drawn) [Compound C5INH-0519]    < 20 nM
COc1ccc(NC(=O)N[C@@H](CO)c2ccccc2O)cc1OCCCC(C)C [Compound C5INH-0395]    < 20 nM

Could you now look at the following compound, please?
Lookup: Which Kd is reported for this compound? COc1ccc(NC(=O)NCc2cccc3c2ccn3Cc2ccncc2)cc1OCCCC(C)C [Compound C5INH-0518]
Found: < 20 nM
